Molecular target: T1, EphA2 extracellular domain fused to the Fc portion of an antibody (EphA2-Fc)
T1 construct: extracellular domain; Immobilized on the ELISA wells; also called immobilized EphA2
T1 sequence (P29317 whole entry, the tested form may be a part): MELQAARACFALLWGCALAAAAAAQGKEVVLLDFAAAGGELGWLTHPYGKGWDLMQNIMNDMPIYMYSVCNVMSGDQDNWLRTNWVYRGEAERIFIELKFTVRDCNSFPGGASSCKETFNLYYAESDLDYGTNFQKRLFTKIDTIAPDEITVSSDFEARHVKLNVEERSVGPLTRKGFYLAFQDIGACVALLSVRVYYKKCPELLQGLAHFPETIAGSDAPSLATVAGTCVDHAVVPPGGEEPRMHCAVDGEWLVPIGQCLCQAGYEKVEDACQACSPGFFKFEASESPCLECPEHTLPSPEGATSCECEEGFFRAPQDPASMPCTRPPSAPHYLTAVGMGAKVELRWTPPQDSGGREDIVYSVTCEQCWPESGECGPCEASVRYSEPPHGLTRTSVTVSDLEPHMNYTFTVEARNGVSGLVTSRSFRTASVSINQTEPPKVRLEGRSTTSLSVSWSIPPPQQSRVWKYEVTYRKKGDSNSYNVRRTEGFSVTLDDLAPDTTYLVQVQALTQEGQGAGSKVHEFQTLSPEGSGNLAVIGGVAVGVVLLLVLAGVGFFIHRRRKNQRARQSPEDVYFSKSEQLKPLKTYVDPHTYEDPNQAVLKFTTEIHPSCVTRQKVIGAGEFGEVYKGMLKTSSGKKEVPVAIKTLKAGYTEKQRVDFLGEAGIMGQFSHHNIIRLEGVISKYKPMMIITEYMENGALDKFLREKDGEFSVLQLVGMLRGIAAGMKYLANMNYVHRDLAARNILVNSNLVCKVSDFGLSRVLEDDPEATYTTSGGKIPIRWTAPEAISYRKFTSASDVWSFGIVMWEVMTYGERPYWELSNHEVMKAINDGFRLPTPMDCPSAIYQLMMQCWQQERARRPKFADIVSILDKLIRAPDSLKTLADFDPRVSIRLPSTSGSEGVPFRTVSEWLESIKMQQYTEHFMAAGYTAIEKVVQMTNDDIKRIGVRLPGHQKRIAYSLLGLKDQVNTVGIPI
Test: ELISA, inhibition of ephrinA5-AP binding to immobilized EphA2-Fc; representative experiment, triplicates
Where no end group is shown, it is not given here. [ ]: non-standard residue; d: D form. βAla = NCCC(=O)O
READOUT KIND: IC50 (nM)
Kindly answer with a numeric value in nM, unit omitted.

# count of solved cases: 2
BINDER	ENDPOINT UNIT	EXPERIMENTAL VALUE
CGAWLAYPDSVPYR (also: homodimer: N-terminal Cys of two chains joined by disulfide, N-terminally disulfide-linked homodimer made from monomer (15*); also called dimer (4)) [CGA-WLA-YR dimer (N-ter)]	nM	6.7
[βAla]WLAYPDSVPYRPKC (also: homodimer, disulfide at 15, other end not in the chain, C-terminally disulfide-linked homodimer made from monomer (19*); also called dimer (2); dimeric peptide (2)) [βA-WLA-YRPKC dimer (C-ter)]	nM	0.47

Let us examine a further case.
## Task # return recorded IC50 for input [βAla]WLAYPDSVPYGSGC (also: homodimer, disulfide at 15, other end not in the chain, C-terminally disulfide-linked homodimer made from monomer (9*); also called dimer (1); dimeric peptide (1)) [βA-WLA-YGSGC dimer (C-ter)]
## Result 67
